Test Details: S6 kinase pathway phospho-S6 level changes – cell-based, A549, cytoblot, luminescence, serum-stimulated, primary screen (AID 1158);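 further: serum-stimulated A549 lung adenocarcinoma cells; signal is phosphorylated S6 detected by cytoblot immunostaining with HRP secondary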
Setup Conditions: 5 h, higher = more signal
We use -0.05 as the dividing line for z-score: on or above the line is condition met, below is condition not met.

| Compound | Cat |
| --- | --- |
| COCCOC(=O)N1C(=O)[C@@]2(c3ccccc31)[C@H](C(=O)N1CCCCCCC1)[C@H]1C(=O)O[C@H](c3ccccc3)[C@H](c3ccccc3)N1[C@@H]2c1ccc(OCCO)cc1 | condition met |
| Cc1ccc(S[C@]2(C(=O)NCC(C)C)CC(=O)N(Cc3cc(C(F)(F)F)cc(C(F)(F)F)c3)[C@@H]2c2ccc(CO)cc2)cc1 | condition not met |
| COC(=O)[C@@]1(Cc2ccc(OC)cc2)[C@H]2c3cc(C(=O)N4CCCC4)n(CCSCCO)c3C[C@H]2CN1C(=O)c1ccccc1 | condition met |
| CCN(CC)c1ccc(N2CC=CC34O[C@@H]5C=CCOC(=O)[C@@H]5[C@H]3C(=O)N(CCCCCCO)[C@@H]4C2=O)cc1 (some centres not stated) | condition met |
| O=C(CS)NCCCCCNC(=O)[C@@H]1C[C@@H]2C(=O)NCC(=O)N2[C@@H]1c1cccc(OCCO)c1 | condition met |
| COC(=O)[C@@]1(Cc2ccc(OC)cc2)[C@H]2c3cc(C(=O)N(C)C)n(Cc4ccc(C(F)(F)F)nc4)c3C[C@H]2CN1C(=O)c1ccccc1 | condition not met |
| COC(=O)C(CC#Cc1ccc2c(c1)[C@]1(C(=O)N2)[C@H](c2ccccc2OCCO)N2[C@H](c3ccccc3)[C@H](c3ccccc3)OC(=O)[C@H]2[C@@H]1C(N)=O)C(=O)OC | condition not met |

###

Test system: Human papillomavirus type 1a E7 protein (residues 1-88)
Test Details: HPV1a E7 small-molecule binders, primary screen, biochemical, small-molecule microarray, residues 1-88, 635 nm (AID 1129)
Setup Conditions: small-molecule microarray binding, fluorescence 635 nm; higher = more signal
# label = yes (1) if composite z-score >= 1 else no (0)

| Molecule | Subject Of Test | Cat |
| --- | --- | --- |
| O=C1OCCC=C[C@H]2OC34C=CCN(Cn5nnc6ccccc65)C(=O)[C@H]3N(CCO)C(=O)[C@@H]4C12 (some centres not stated) | Human papillomavirus type 1a E7 protein (residues 1-88) | no (0) |
| CCOC(=O)C[C@H]1[C@H](OC(=O)c2ccc(-c3ccccc3)cc2)[C@@H](NC(=O)c2ccccc2)c2cc(OCCCO)ccc2N1C(=O)Cc1ccc(OC)cc1 | Human papillomavirus type 1a E7 protein (residues 1-88) | no (0) |
| [N-]=[N+]=Nc1ccccc1C[C@]1(C(=O)NCC(O)CO)N=C(c2ccc(OCCCO)cc2)O[C@H]1c1ccccc1 (some centres not stated) | Human papillomavirus type 1a E7 protein (residues 1-88) | yes (1) |
| C=CC[C@]12N=C(c3ccc(OCCCO)cc3)O[C@H]1c1ccccc1N(CCS(=O)(=O)c1ccccc1)C2=O | Human papillomavirus type 1a E7 protein (residues 1-88) | yes (1) |
| [N-]=[N+]=NCc1ccccc1[C@H]1OC(c2ccc(OCCCO)cc2)=N[C@@]1(Cc1ccccc1)C(=O)N1CCCCC1 | Human papillomavirus type 1a E7 protein (residues 1-88) | yes (1) |
| O=C1NC(=O)C2C1C=CC(C(O)c1ccc(-c3ccccc3)s1)N2Nc1ccc(Cl)cc1Cl (configuration not stated) | Human papillomavirus type 1a E7 protein (residues 1-88) | yes (1) |
| O=C(CS)NCCCCCNC(=O)[C@H]1C[C@H]2C(=O)NCC(=O)N2[C@H]1c1cccc(OCCO)c1 | Human papillomavirus type 1a E7 protein (residues 1-88) | no (0) |
